// values below are reported Dissociation amount (RU)
- measurement_target: T1, human FSTL1 (construct not stated) (human, UniProt Q12841 21-308)
- T1 construct: also called human FSTL1 antigen; FSTL1 (R&D Systems, Inc. Cat#1694-FN-050)
- T1 sequence: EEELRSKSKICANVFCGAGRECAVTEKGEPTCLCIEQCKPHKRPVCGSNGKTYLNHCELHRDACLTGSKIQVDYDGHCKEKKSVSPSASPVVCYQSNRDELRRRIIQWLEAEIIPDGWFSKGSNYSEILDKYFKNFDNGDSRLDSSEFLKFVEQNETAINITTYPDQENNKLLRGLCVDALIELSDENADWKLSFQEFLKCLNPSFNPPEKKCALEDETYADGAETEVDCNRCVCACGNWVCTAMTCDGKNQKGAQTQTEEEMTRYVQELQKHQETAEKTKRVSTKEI
- test_summary: SPR (Biacore T-200), captured antibody, human FSTL1 10 µg/ml; also: time not given here
property_name: Dissociation amount (RU)

binder="anti-FSTL1 antibody clone #6-55 (chicken-mouse chimeric antibody) (antibody, mouse IgG1, kappa, V domains shown, also called Anti-FSTL1 mAb (#6-55)) VH: AVTLDESGGGLQTPGGALSLVCKGSGFTFTSVTMQWVRQAPGKGLEWVASVCSGSSTYYAPAVKGRATISRDNGQSTVRLQLSNLRPEDTGTYYCAKIAGRARWSCTSAAYNIDAWGHGTEVIVSS VL: ASTQPSSVSAIPGETVKITCSGGGNNYGWYQQRSPGSAPVTVIYYNDNRPSNIPSRFSGSTSGSTSTLTITGVQADDEAIYYCGSWDSNTDSGIFGAGTTLTVLG" units=RU readout_number=1.5
binder="anti-FSTL1 antibody clone #5-3 (chicken-mouse chimeric antibody) (antibody, mouse IgG1, kappa, V domains shown) VH: AVTLDESGGGLQTPGGALSLVCKGSGFSFSSFNMFWVRQAPGKGLEWVAGIGKDGVPKYGAAVDGRATISKDNGQSTMRLQLNNLRAEDTGTYFCAKAAGGCSYDWCGIYAGDIDTWGHGTEVIVSS VL: ASTQPSSVSANPGETVKITCSGGSGYYYGWYQQKSPGSVPVTVIYNNNNRPSDIPSRFSGSKSGSTGTLTITGVRAEDEAVYYCGGYDNSGTGIFGAGTTLTVLG" units=RU readout_number=8.8
binder="anti-FSTL1 antibody clone #5-10 (chicken-mouse chimeric antibody) (antibody, mouse IgG1, V domains shown) VH: AVTLDESGGGLQTPGGGLSLVCKGSGFTLSSFNMFWVRQAPGKGLEWVAGVGKDGGTTYGAAVDGRATISRDSGQSTVRLQLNDLRAEDTGTYFCAKAAGGCSYSWCGAYVGDLDAWGHGTEVIVSS VL: ASTQPSSVSANPGETVKITCSGGGSYVGSYYYGWYQQKSPGSAPVTVIYNNNQRPSDIPSRFSGSKSGSTATLTITGVQAEDEAVYFCGGYDSSAGGIFGAGTTLTVLG" units=RU readout_number=12.1

Reference source for all entries: patent US20180021429A1
